- assayedSystem: PI3K beta (Homo sapiens, UniProt P42338)
- Construct: for the full-length p110-b subunit are generated and fused by overlapping PCR; p85(iSH2) fusion partner (same polypeptide; see partner chain) (N); Gly linker (N); His tag (C); Tn5 (Trichoplusia ni) or TiniPro insect cells
- Sequence (P42338 with tags, fused parts or gaps limits assumed): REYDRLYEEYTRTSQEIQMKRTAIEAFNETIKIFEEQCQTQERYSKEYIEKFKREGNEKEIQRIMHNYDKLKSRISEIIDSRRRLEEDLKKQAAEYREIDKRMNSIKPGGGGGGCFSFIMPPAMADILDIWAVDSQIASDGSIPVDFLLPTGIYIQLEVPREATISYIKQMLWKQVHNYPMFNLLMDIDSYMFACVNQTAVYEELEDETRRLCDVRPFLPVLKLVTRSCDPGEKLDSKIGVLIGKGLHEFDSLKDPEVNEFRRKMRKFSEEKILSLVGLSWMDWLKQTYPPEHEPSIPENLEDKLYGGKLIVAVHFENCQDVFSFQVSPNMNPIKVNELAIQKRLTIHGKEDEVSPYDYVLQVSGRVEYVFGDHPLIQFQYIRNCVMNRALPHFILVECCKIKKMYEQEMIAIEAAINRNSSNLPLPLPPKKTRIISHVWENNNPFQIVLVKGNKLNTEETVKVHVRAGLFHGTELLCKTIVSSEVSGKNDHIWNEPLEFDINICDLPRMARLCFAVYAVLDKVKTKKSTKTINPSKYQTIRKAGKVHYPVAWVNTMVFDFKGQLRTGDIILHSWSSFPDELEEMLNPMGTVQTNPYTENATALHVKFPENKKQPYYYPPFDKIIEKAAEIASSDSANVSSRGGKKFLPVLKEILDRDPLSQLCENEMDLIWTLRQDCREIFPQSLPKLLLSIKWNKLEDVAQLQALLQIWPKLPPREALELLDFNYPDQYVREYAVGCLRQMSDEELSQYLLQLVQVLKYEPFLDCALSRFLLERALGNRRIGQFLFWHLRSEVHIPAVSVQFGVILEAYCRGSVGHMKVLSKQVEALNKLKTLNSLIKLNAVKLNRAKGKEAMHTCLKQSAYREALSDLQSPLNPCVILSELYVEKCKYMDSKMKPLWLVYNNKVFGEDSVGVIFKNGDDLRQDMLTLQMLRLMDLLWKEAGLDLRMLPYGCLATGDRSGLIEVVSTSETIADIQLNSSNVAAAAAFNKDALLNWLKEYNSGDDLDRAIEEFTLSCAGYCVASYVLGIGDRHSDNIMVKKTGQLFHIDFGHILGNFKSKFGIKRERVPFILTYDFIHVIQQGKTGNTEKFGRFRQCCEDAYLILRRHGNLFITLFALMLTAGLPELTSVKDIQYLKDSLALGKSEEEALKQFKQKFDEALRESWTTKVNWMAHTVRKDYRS
- experimentSummary: PI3K beta enzymatic assay (Kinase-Glo luminescence)
- reportedConditions: Enzymatic Data
assayEndpoint: IC50

- smilesStructure: "COc1cc(-c2ccc3nc(C)c(-c4cnc(N)c(C(F)(F)F)c4)n3n2)ccc1OCCNC(=O)c1ccncc1"
  readoutValue: "> 9.1 µM"
- smilesStructure: "COc1cc(-c2ccc3nc(C)c(-c4cnc(N)c(C(F)(F)F)c4)n3n2)ccc1OCCNC(=O)Nc1cccnc1"
  readoutValue: "> 9.1 µM"
- smilesStructure: "Cc1nc2ccc(-c3ccc(OCC4(NC(=O)OC(C)(C)C)COC4)cc3)nn2c1-c1cnc(N)c(C(F)(F)F)c1"
  readoutValue: "> 9.1 µM"
- smilesStructure: "COc1ccc(-c2c(C)nc3ccc(-c4ccc(OC)c(OC)c4)nn23)cn1"
  readoutValue: "2.31 µM"
- smilesStructure: "COc1cc(-c2ccc3nc(C)c(-c4cnc(N)c(C(F)(F)F)c4)n3n2)ccc1OC1CCN(C(=O)OC(C)(C)C)CC1"
  readoutValue: "> 9.1 µM"
- smilesStructure: "COc1cc(-c2ccc3nc(C)c(-c4cnc(N)c(C(F)(F)F)c4)n3n2)ccc1OCCCN"
  readoutValue: "0.193 µM"
- smilesStructure: "COc1ccc(-c2ccc3nc(C)c(-c4ccn(S(=O)(=O)c5ccc(C#N)cc5)n4)n3n2)cc1OC"
  readoutValue: "> 9.1 µM"
- smilesStructure: "COc1cccc(NC(=O)NCCOc2ccc(-c3ccc4nc(C)c(-c5cnc(N)c(C(F)(F)F)c5)n4n3)cc2OC)c1"
  readoutValue: "> 9.1 µM"
- smilesStructure: "COCCOCCOCCOc1ccc(-c2ccc3nc(C)c(-c4ccc(S(C)(=O)=O)cc4)n3n2)cc1OC"
  readoutValue: "> 9.1 µM"
- smilesStructure: "COc1cc(-c2ccc3nc(C)c(-c4cnc(N)c(C(F)(F)F)c4)n3n2)ccc1OCCCN1CCNC1=O"
  readoutValue: "4.86 µM"
- smilesStructure: "COc1ccc(S(=O)(=O)n2ccc(-c3c(C)nc4ccc(-c5ccc(OC)c(OC)c5)nn34)n2)cc1"
  readoutValue: "> 9.1 µM"
- smilesStructure: "CCS(=O)(=O)c1ccc(-c2c(C)nc3ccc(-c4ccc(OC5CCNCC5)c(OC)c4)nn23)cc1"
  readoutValue: "> 9.1 µM"
- smilesStructure: "COc1cc(-c2ccc3nc(C)c(-c4cnc(N)c(C(F)(F)F)c4)n3n2)ccc1OCCNC(=O)OC(C)C"
  readoutValue: "> 9.1 µM"
- smilesStructure: "COc1ccc(-c2ccc3nc(C)c(-c4ccnc(-n5ccnc5)n4)n3n2)cc1OC"
  readoutValue: "> 9.1 µM"
- smilesStructure: "Cc1nc2ccc(-c3ccc(OCC4(NC(=O)OCc5ccccc5)COC4)cc3)nn2c1-c1cnc(N)c(C(F)(F)F)c1"
  readoutValue: "> 9.1 µM"
- smilesStructure: "Cc1nc2ccc(-c3ccc(OCC4(NC(=O)C(F)(F)F)COC4)cc3)nn2c1-c1cnc(N)c(C(F)(F)F)c1"
  readoutValue: "4.24 µM"
- smilesStructure: "COc1cc(-c2ccc3nc(C)c(-c4cnc(N)c(C(F)(F)F)c4)n3n2)ccc1OCCN1CCNC1=O"
  readoutValue: "2.08 µM"
- smilesStructure: "COc1ccc(-c2ccc3nc(C)c(-c4ccnc(N(C)CCN(C)C)n4)n3n2)cc1OC"
  readoutValue: "3.03 µM"
- smilesStructure: "COc1cc(-c2ccc3nc(C)c(-c4cnc(N)c(C(F)(F)F)c4)n3n2)ccc1OCCCNC(=O)C(F)(F)F"
  readoutValue: "> 9.1 µM"
- smilesStructure: "COc1cc(-c2ccc3nc(C)c(-c4cnc(N)c(C(F)(F)F)c4)n3n2)ccc1OCCCNC(=O)C(C)C"
  readoutValue: "4.01 µM"
- smilesStructure: "COc1cc(-c2ccc3nc(C)c(-c4ccc(S(C)(=O)=O)cc4)n3n2)ccc1OC1CCN(C(=O)OC(C)(C)C)CC1"
  readoutValue: "> 9.1 µM"
- smilesStructure: "Cc1nc2ccc(-c3ccc4c(c3)OCO4)nn2c1-c1cnc2[nH]ccc2c1"
  readoutValue: "> 9.1 µM"
- smilesStructure: "COc1cc(-c2ccc3nc(C)c(-c4cnc(N)c(C(F)(F)F)c4)n3n2)ccc1OCCNC(=O)c1cccnc1"
  readoutValue: "> 9.1 µM"
- smilesStructure: "Cc1nc2ccc(-c3ccc(OCC4(NC(=O)C5CC5)COC4)cc3)nn2c1-c1cnc(N)c(C(F)(F)F)c1"
  readoutValue: "8.19 µM"
- smilesStructure: "COc1cc(-c2ccc3nc(C)c(-c4cnc(N)c(C(F)(F)F)c4)n3n2)ccc1OCCNC(=O)Nc1cccc(C#N)c1"
  readoutValue: "> 9.1 µM"
- smilesStructure: "COc1ccc(-c2ccc3nc(C)c(-c4cc[nH]n4)n3n2)cc1OC"
  readoutValue: "3.24 µM"
- smilesStructure: "COc1ccc(-c2ccc3nc(C)c(-c4cnc(N)c(C(F)(F)F)c4)n3n2)cc1OCCCNC(=O)c1ccncc1"
  readoutValue: "> 9.1 µM"
- smilesStructure: "COc1ccc(-c2ccc3nc(C)c(-c4ccc(N5CCNCC5)nc4)n3n2)cc1OC"
  readoutValue: "0.613 µM"
- smilesStructure: "COc1ccc(-c2ccc3nc(C)c(-c4ccn(S(=O)(=O)c5cccc(C#N)c5)n4)n3n2)cc1OC"
  readoutValue: "> 9.1 µM"

Numbers sourced from patent US20100305113A1.
